// provenance: paper PMC10303271

Each item that follows carries a reported inhibition at 10 µM.
target-or-system: M5 (Homo sapiens, UniProt P08912)
Construct: purchased NIMH Psychoactive Drug Screening Program (PDSP)
Sequence (P08912 whole entry): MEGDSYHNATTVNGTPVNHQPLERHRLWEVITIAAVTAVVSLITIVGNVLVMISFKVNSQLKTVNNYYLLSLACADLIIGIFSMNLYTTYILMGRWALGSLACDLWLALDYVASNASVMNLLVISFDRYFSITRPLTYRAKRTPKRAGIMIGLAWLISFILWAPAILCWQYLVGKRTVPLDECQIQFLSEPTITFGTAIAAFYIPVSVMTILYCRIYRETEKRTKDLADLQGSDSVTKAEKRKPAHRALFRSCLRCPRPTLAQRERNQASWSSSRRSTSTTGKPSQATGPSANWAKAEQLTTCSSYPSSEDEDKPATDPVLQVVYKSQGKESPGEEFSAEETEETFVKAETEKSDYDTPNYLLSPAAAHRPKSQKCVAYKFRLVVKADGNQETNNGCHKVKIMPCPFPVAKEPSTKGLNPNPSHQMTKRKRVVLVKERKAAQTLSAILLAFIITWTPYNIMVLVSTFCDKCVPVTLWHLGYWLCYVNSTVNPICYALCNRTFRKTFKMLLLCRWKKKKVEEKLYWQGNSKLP
protocol-summary: PDSP primary binding M5
condition: primary binding, 10,000 nM; last figure of the line = mean of the 4 before it; read-out: M5, PDSP raw data, mean
A number alone suffices; assume %.

>  <molecule>
C#Cc1ccc2c(c1)C(c1ccccn1)=N[C@@H](C)c1c(C(=O)N(C)C)ncn1-2 [Compound 31]

>  <target-or-system>
M5 (Homo sapiens, UniProt P08912)

>  <inhibition at 10 µM (%)>
-11.8

$$$$
>  <molecule>
CCc1noc(-c2ncn3c2[C@@H](C)N=C(c2ccccc2F)c2cc(-c4ccccc4)ccc2-3)n1 [Compound 35]

>  <target-or-system>
M5 (Homo sapiens, UniProt P08912)

>  <inhibition at 10 µM (%)>
-7.39

$$$$
>  <molecule>
CC(C)c1noc(-c2ncn3c2[C@@H](C)N=C(c2ccccc2F)c2cc(Cl)ccc2-3)n1 [Compound 37]

>  <target-or-system>
M5 (Homo sapiens, UniProt P08912)

>  <inhibition at 10 µM (%)>
-4.88

$$$$

--- query ---
*Q* What inhibition at 10 µM value was documented for this molecule, C#Cc1ccc2c(c1)C(c1ccccc1Cl)=N[C@H](C)c1c(C(=O)NC)ncn1-2 [Compound 21] ?
*A* -8.03
